Tested on: RhV-16 (Rhinovirus)
Assay: microbe, parasite or virus in culture
Type: cell-based
Conditions: Enterovirus; 120 hours at 32° C.; read-out: IC50, RhV-16 (50 percent inhibition of plaque formation)
Reported IC50 values for the following compounds.
Number in µg/mL, nothing else.

C#C/C=C(\c1ccc(F)cc1)c1ccc2nc(N)n(S(=O)(=O)C(C)C)c2c1 [1B (trans)] :: 0.032
C#CC=C(c1ccc2nc(N)n(S(=O)(=O)C(C)C)c2c1)c1cc(F)ccc1F [26 (trans)] :: 0.099
C#C/C=C(\c1ccccc1)c1ccc2nc(N)n(S(=O)(=O)C(C)C)c2c1 [2C (trans)] :: 0.039

input: Please look up its IC50: C#CC=C(c1cccc(F)c1)c1ccc2nc(N)n(S(=O)(=O)C(C)C)c2c1 [24 (trans)]
output: 0.057

---

Reported IC50 values for the following molecules.
Tested on: RhV-16 (Rhinovirus)
Test: microbe, parasite or virus in culture
Assay type: cell-based
Details: Enterovirus; 120 hours at 32° C.; read-out: IC50, RhV-16 (50 percent inhibition of plaque formation)
Number in µg/mL, nothing else.

// known answers, use as guide
C#CC=C(c1ccc(OC)c(F)c1)c1ccc2nc(N)n(S(=O)(=O)C(C)C)c2c1 [25 (trans)] :: 0.06
C#CC=C(c1cc(F)cc(F)c1)c1ccc2nc(N)n(S(=O)(=O)C(C)C)c2c1 [29 (trans)] :: 0.261
C#C/C=C(\c1ccc(OC)cc1)c1ccc2nc(N)n(S(=O)(=O)C(C)C)c2c1 [3 (trans)] :: 0.029

input: Please look up its IC50: C#CC=C(c1cccc(Cl)c1)c1ccc2nc(N)n(S(=O)(=O)C(C)C)c2c1 [27 (trans)]
output: 0.185

Each recorded value in this set is attributed to patent US5693661A.
